Tested on: IL-12 production in human PBMC or THP-1 cells
EXPERIMENT NOTES: In vitro inhibition of IL-12 production in stimulated human PBMC or THP-1 cells (ELISA)
Assay type: cell-based
SETTINGS: representative in vitro IC50 data
pIC50: −log10 of the molar value.
Here, each record is paired with measured pIC50 data.

pIC50 for Cc1cccc(/C=N/N(C)c2cc(N3CCOCC3)nc(CCCOC(=O)Nc3cccc(C(F)(F)F)c3)n2)c1 [Compound 4] ?
< 7.30

pIC50 for Cc1cccc(/C=N/Nc2cc(N3CCOCC3)nc(CCOC(=O)Nc3ccc(C(C)C)cc3)n2)c1 [Compound 20] ?
< 7.30

pIC50 for Cc1cccc(/C=N/Nc2cc(N3CCOCC3)nc(CC(C)(C)OC(=O)Nc3cccc(C(F)(F)F)c3)n2)c1 [Compound 29] ?
< 7.30

pIC50 for Cc1cccc(/C=N/Nc2cc(N3CCOCC3)nc(CCC(C)(C)OC(=O)Nc3cccc(C(F)(F)F)c3)n2)c1 [Compound 27] ?
< 7.30

pIC50 for COc1cccc(NC(=O)OCCCc2nc(N/N=C/c3cccc(C)c3)cc(N3CCOCC3)n2)c1 [Compound 1] ?
7.30 to 7.60

pIC50 for Cc1cccc(/C=N/Nc2cc(N3CCOCC3)nc(CCCOC(=O)Nc3cccc(C(F)(F)F)c3)n2)c1 [Compound 2] ?
> 7.60

pIC50 for Cc1cccc(/C=N/Nc2cc(N3CCOCC3)nc(CCCOC(=O)Nc3ccc(Oc4ccccc4)cc3)n2)c1 [Compound 11] ?
7.30 to 7.60
